target: furin, P09958; assay: furin cleavage Z-score vs untreated control; higher = more cleavage, active = 3.5 or more, inactive = 1 or less, 8 variable residues between constant flanks; conditions: 7.5 min;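 further: purified furin at 1:10 enzyme:substrate in 50 mM HEPES pH 7.5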
Sequence (P09958 whole entry): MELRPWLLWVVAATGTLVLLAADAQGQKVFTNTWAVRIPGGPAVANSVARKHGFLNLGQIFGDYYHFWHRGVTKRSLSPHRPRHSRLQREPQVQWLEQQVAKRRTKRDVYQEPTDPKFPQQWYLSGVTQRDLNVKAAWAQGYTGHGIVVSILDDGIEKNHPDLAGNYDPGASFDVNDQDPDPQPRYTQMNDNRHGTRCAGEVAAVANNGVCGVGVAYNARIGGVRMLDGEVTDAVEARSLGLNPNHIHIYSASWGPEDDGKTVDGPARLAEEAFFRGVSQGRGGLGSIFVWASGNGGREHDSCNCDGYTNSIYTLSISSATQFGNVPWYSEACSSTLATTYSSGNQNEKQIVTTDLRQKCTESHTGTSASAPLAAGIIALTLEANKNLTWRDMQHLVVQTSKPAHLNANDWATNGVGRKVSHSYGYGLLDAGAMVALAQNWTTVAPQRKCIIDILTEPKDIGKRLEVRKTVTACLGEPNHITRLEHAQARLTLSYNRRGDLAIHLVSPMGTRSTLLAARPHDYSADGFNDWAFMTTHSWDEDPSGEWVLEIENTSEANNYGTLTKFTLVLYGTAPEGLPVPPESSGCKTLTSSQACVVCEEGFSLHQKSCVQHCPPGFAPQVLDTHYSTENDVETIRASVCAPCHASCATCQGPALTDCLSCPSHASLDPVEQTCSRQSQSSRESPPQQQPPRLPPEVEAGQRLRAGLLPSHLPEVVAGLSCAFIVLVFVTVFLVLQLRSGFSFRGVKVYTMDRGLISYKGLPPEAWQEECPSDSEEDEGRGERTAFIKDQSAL
This is one part of the list. How many sequences the whole screen found active is unknown.
readout.type: furin cleavage Z-score
Answer as a number with no unit attached.

Some sequences with recorded furin cleavage Z-score:
sequence.data	furin cleavage Z-score
CAEVPCHGPSAGNASASA [HC2376]	-0.0304
CARSRRTWELAGNASASA [FS-3265]	-1.05
CARNMWSGTFAGNASASA [HC1187]	1.59

Okay, now this sequence:
Supply recorded furin cleavage Z-score for CAEVVYSTWVAGNASASA [HC137] here.
-0.752

This collection of values is drawn from the supplement of paper PMC3545927.
